tested on: HHV-1; assay: HHV-1 viral attachment assay on Vero cells (plaque reduction); format: cell-based, Human Herpesvirus 1; settings: Human alphaherpesvirus 1, Vero
reported_endpoint: pEC50
pEC50 here: minus log base 10 of the concentration, concentration in moles per litre.

IN: Give pEC50; test system HHV-1; molecule CC(C)CCCc1ccc2c(c1)C(=O)C(Cl)=C(Cl)C2=O
OUT: 6.42
